- applied conditions: in 1,4-dioxane, 313.15 K
measurement type: solubility (mole fraction)
Just the number, please, no unit attached.

In: So what does the record say about solubility (mole fraction) for "CC1=NN(c2ccc(C)cc2)C(=O)C1" ?
Out: 0.0849

----------
- applied conditions: in methanol, 303.15 K
measurement type: solubility (mole fraction)
Just the number, please, no unit attached.

In: So what does the record say about solubility (mole fraction) for "CC1=NN(c2ccc(C)cc2)C(=O)C1" ?
Out: 0.0367

----------
- applied conditions: in 1,4-dioxane, 283.15 K
measurement type: solubility (mole fraction)
Just the number, please, no unit attached.

In: So what does the record say about solubility (mole fraction) for "CC1=NN(c2ccc(C)cc2)C(=O)C1" ?
Out: 0.0337

----------
- applied conditions: in ethyl acetate, 313.15 K
measurement type: solubility (mole fraction)
Just the number, please, no unit attached.

In: So what does the record say about solubility (mole fraction) for "CC1=NN(c2ccc(C)cc2)C(=O)C1" ?
Out: 0.0562

----------
- applied conditions: in cyclohexane, 285.65 K
measurement type: solubility (mole fraction)
Just the number, please, no unit attached.

In: So what does the record say about solubility (mole fraction) for "CC1=NN(c2ccc(C)cc2)C(=O)C1" ?
Out: 0.000558

----------
- applied conditions: in ethanol, 310.65 K
measurement type: solubility (mole fraction)
Just the number, please, no unit attached.

In: So what does the record say about solubility (mole fraction) for "CC1=NN(c2ccc(C)cc2)C(=O)C1" ?
Out: 0.0436

----------
- applied conditions: in isopropanol, 280.65 K
measurement type: solubility (mole fraction)
Just the number, please, no unit attached.

In: So what does the record say about solubility (mole fraction) for "CC1=NN(c2ccc(C)cc2)C(=O)C1" ?
Out: 0.0127

----------
- applied conditions: in ethylbenzene, 305.65 K
measurement type: solubility (mole fraction)
Just the number, please, no unit attached.

In: So what does the record say about solubility (mole fraction) for "CC1=NN(c2ccc(C)cc2)C(=O)C1" ?
Out: 0.0301

----------
- applied conditions: in 1,4-dioxane, 298.15 K
measurement type: solubility (mole fraction)
Just the number, please, no unit attached.

In: So what does the record say about solubility (mole fraction) for "CC1=NN(c2ccc(C)cc2)C(=O)C1" ?
Out: 0.0549

----------
- applied conditions: in ethyl acetate, 280.65 K
measurement type: solubility (mole fraction)
Just the number, please, no unit attached.

In: So what does the record say about solubility (mole fraction) for "CC1=NN(c2ccc(C)cc2)C(=O)C1" ?
Out: 0.0188

----------
- applied conditions: in methanol, 305.65 K
measurement type: solubility (mole fraction)
Just the number, please, no unit attached.

In: So what does the record say about solubility (mole fraction) for "CC1=NN(c2ccc(C)cc2)C(=O)C1" ?
Out: 0.0398

----------
- applied conditions: in cyclohexane, 295.65 K
measurement type: solubility (mole fraction)

In: So what does the record say about solubility (mole fraction) for "CC1=NN(c2ccc(C)cc2)C(=O)C1" ?
Out: 0.000902

----------
- applied conditions: in n-butanol, 293.15 K
measurement type: solubility (mole fraction)
Just the number, please, no unit attached.

In: So what does the record say about solubility (mole fraction) for "CC1=NN(c2ccc(C)cc2)C(=O)C1" ?
Out: 0.032

----------
- applied conditions: in isopentanol, 290.65 K
measurement type: solubility (mole fraction)
Just the number, please, no unit attached.

In: So what does the record say about solubility (mole fraction) for "CC1=NN(c2ccc(C)cc2)C(=O)C1" ?
Out: 0.0492

----------
- applied conditions: in acetonitrile, 313.15 K
measurement type: solubility (mole fraction)

In: So what does the record say about solubility (mole fraction) for "CC1=NN(c2ccc(C)cc2)C(=O)C1" ?
Out: 0.0235

----------
- applied conditions: in ethylbenzene, 298.15 K
measurement type: solubility (mole fraction)

In: So what does the record say about solubility (mole fraction) for "CC1=NN(c2ccc(C)cc2)C(=O)C1" ?
Out: 0.0231

----------
- applied conditions: in ethylbenzene, 280.65 K
measurement type: solubility (mole fraction)
Just the number, please, no unit attached.

In: So what does the record say about solubility (mole fraction) for "CC1=NN(c2ccc(C)cc2)C(=O)C1" ?
Out: 0.012

----------
- applied conditions: in acetonitrile, 300.65 K
measurement type: solubility (mole fraction)
Just the number, please, no unit attached.

In: So what does the record say about solubility (mole fraction) for "CC1=NN(c2ccc(C)cc2)C(=O)C1" ?
Out: 0.0142

----------
- applied conditions: in cyclohexane, 310.65 K
measurement type: solubility (mole fraction)
Just the number, please, no unit attached.

In: So what does the record say about solubility (mole fraction) for "CC1=NN(c2ccc(C)cc2)C(=O)C1" ?
Out: 0.00179

----------
- applied conditions: in 1,4-dioxane, 295.65 K
measurement type: solubility (mole fraction)
Just the number, please, no unit attached.

In: So what does the record say about solubility (mole fraction) for "CC1=NN(c2ccc(C)cc2)C(=O)C1" ?
Out: 0.0507

----------
- applied conditions: in cyclohexane, 288.15 K
measurement type: solubility (mole fraction)
Just the number, please, no unit attached.

In: So what does the record say about solubility (mole fraction) for "CC1=NN(c2ccc(C)cc2)C(=O)C1" ?
Out: 0.000626

----------
- applied conditions: in cyclohexane, 298.15 K
measurement type: solubility (mole fraction)
Just the number, please, no unit attached.

In: So what does the record say about solubility (mole fraction) for "CC1=NN(c2ccc(C)cc2)C(=O)C1" ?
Out: 0.00102

----------
- applied conditions: in ethanol, 303.15 K
measurement type: solubility (mole fraction)
Just the number, please, no unit attached.

In: So what does the record say about solubility (mole fraction) for "CC1=NN(c2ccc(C)cc2)C(=O)C1" ?
Out: 0.0345

----------
- applied conditions: in ethanol, 313.15 K
measurement type: solubility (mole fraction)

In: So what does the record say about solubility (mole fraction) for "CC1=NN(c2ccc(C)cc2)C(=O)C1" ?
Out: 0.0471

----------
- applied conditions: in n-propanol, 283.15 K
measurement type: solubility (mole fraction)
Just the number, please, no unit attached.

In: So what does the record say about solubility (mole fraction) for "CC1=NN(c2ccc(C)cc2)C(=O)C1" ?
Out: 0.0213

----------
- applied conditions: in isopropanol, 278.15 K
measurement type: solubility (mole fraction)
Just the number, please, no unit attached.

In: So what does the record say about solubility (mole fraction) for "CC1=NN(c2ccc(C)cc2)C(=O)C1" ?
Out: 0.0116

----------
- applied conditions: in methanol, 298.15 K
measurement type: solubility (mole fraction)
Just the number, please, no unit attached.

In: So what does the record say about solubility (mole fraction) for "CC1=NN(c2ccc(C)cc2)C(=O)C1" ?
Out: 0.0312

----------
- applied conditions: in n-butanol, 310.65 K
measurement type: solubility (mole fraction)
Just the number, please, no unit attached.

In: So what does the record say about solubility (mole fraction) for "CC1=NN(c2ccc(C)cc2)C(=O)C1" ?
Out: 0.056

----------
- applied conditions: in toluene, 313.15 K
measurement type: solubility (mole fraction)
Just the number, please, no unit attached.

In: So what does the record say about solubility (mole fraction) for "CC1=NN(c2ccc(C)cc2)C(=O)C1" ?
Out: 0.0351

----------
- applied conditions: in ethylbenzene, 293.15 K
measurement type: solubility (mole fraction)
Just the number, please, no unit attached.

In: So what does the record say about solubility (mole fraction) for "CC1=NN(c2ccc(C)cc2)C(=O)C1" ?
Out: 0.0193

----------
- applied conditions: in 1,4-dioxane, 290.65 K
measurement type: solubility (mole fraction)
Just the number, please, no unit attached.

In: So what does the record say about solubility (mole fraction) for "CC1=NN(c2ccc(C)cc2)C(=O)C1" ?
Out: 0.0432

----------
- applied conditions: in n-butanol, 285.65 K
measurement type: solubility (mole fraction)
Just the number, please, no unit attached.

In: So what does the record say about solubility (mole fraction) for "CC1=NN(c2ccc(C)cc2)C(=O)C1" ?
Out: 0.0247

----------
- applied conditions: in cyclohexane, 300.65 K
measurement type: solubility (mole fraction)
Just the number, please, no unit attached.

In: So what does the record say about solubility (mole fraction) for "CC1=NN(c2ccc(C)cc2)C(=O)C1" ?
Out: 0.00114

----------
- applied conditions: in n-propanol, 293.15 K
measurement type: solubility (mole fraction)
Just the number, please, no unit attached.

In: So what does the record say about solubility (mole fraction) for "CC1=NN(c2ccc(C)cc2)C(=O)C1" ?
Out: 0.0301

----------
- applied conditions: in acetonitrile, 310.65 K
measurement type: solubility (mole fraction)
Just the number, please, no unit attached.

In: So what does the record say about solubility (mole fraction) for "CC1=NN(c2ccc(C)cc2)C(=O)C1" ?
Out: 0.0213

----------
- applied conditions: in toluene, 278.15 K
measurement type: solubility (mole fraction)
Just the number, please, no unit attached.

In: So what does the record say about solubility (mole fraction) for "CC1=NN(c2ccc(C)cc2)C(=O)C1" ?
Out: 0.00985
